# System: SF-295 CNS
# measurement.notes: NCI-60 one-dose screen, 48 h
# condition.notes: 10 µM unless noted
Compounds without any hit were thinned out: in the full panel of roughly 83,000, 20% have a hit. Active and inactive are the calls of the source. Rule for the calls: active = growth percent below 10; inactive = the rest.
Reply using exactly one outcome from active, inactive

COc1ccc([As]=[As]c2ccc(OC)c(NCS(=O)(=O)O)c2)cc1NCS(=O)(=O)O (centres undefined)    inactive

Input line: Tell me the assay call for CC(C)(C)C(=O)OCOP(=O)(OCOC(=O)C(C)(C)C)C1CCCN(O)C1=O (centres undefined) please.
Output line: inactive

Input line: Repeat for the following compound: C[C@]12CC[C@H]3[C@@H](C[C@@H]4SC(Nc5ccccc5)=N[C@@]45CC(O)CC[C@]35C)[C@@H]1CCC2O (some centres undefined)
Output line: active

Input line: Then this compound: COC(=O)[C@H](Cc1ccccc1)NC(=O)c1csc([C@@H](C[C@H](C(C)C)N(C)C(=O)[C@@H](NC(=O)[C@H]2CCCN2C)C2CC2)OC(C)=O)n1
Output line: active

Data origin: PubChem BioAssay (NCI)
